target-of-assay: T1, Asf1 (1-156), conserved N-terminal domain of human Asf1 (human, UniProt Q9Y294 1-156)
T1 construct: range 1-156; The ITC legend says Asf1 1-156; Recombinant, cloned in peTM30; also called Asf1a 1-156
T1 sequence (Q9Y294 1-156 limits assumed): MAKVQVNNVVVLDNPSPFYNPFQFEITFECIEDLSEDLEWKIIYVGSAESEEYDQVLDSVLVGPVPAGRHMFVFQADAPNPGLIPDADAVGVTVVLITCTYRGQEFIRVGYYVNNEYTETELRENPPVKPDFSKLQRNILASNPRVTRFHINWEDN
protocol-text: ITC (microcalorimetry)
Entries and their Kd values follow.
readout-label: Kd

{"binder": "ASTERKWAELARRIAGAGGVTLNGFG [Peptide i5_Aloop]", "result": "27 nM"}
{"binder": "GAMGTLTPKEAELARRIRGAGGVTLNGFG [inhibitor peptide Asf1/H3-H4, peptide i4V]", "result": "60 nM"}
{"binder": "GAMGTITPKEAQLARRIRGAGASRTLNGFG [inhibitor peptide Asf1/H3-H4 of SEQ ID No 41]", "result": "800 nM"}
{"binder": "GAMGTITPKEAQLARRIEGAGASVTLNGFG [inhibitor peptide Asf1/H3-H4 of SEQ ID No 44]", "result": "660 nM"}
{"binder": "GAMGTIMPKDIQLARRIRGAGASRTLYGFG [inhibitor peptide Asf1/H3-H4 of SEQ ID No 39]", "result": "350 nM"}
{"binder": "RRPRRPRRPRRPRRPGAMGTITPKEAQLARRIRGAGGVTLNGFGCA [inhibitor peptide Asf1/H3-H4, peptide RRP5-i42V-CA]", "result": "420 nM"}

These entries and their values trace back to patent US20150025016A1.
